PROTOCOL TEXT: Water retention evaluation (moisture reduction rate)
Assay type: physicochemical
EXPERIMENTAL CONTEXT: 80 wt. % aqueous solution, Karl Fischer, before test
Protocol: 80 wt. % aqueous solutions of the formulations (organic salts) of the working examples 428 to 459 and comparative examples 1 to 5 in Tables 2A and 2B were prepared, and the water contents were measured using a Karl Fischer moisture meter (CA-200 manufactured by Mitsubishi Chemical Analytech Co., Ltd.). It was confirmed that the water contents of them were 20.0 wt. % (moisture content before test: A). […]
RESULT TYPE: Moisture content before test (A) (%)

# MOLECULE, RECORDED RESULT
measured = [
    ("N[C@@H](CO)C(=O)O.O=C(O)[C@H](O)[C@@H](O)[C@H](O)[C@H](O)CO [Formulation 243]", 20.0),
    ("N[C@@H](Cc1c[nH]cn1)C(=O)O.O=C(O)[C@H](O)[C@@H](O)[C@H](O)[C@H](O)CO [Formulation 93]", 20.0),
    ("Cl.NCCCC[C@H](N)C(=O)O [Formulation 429]", 20.0),
]
